# key: entry, value: IC50
test.system: cAMP-dependent protein kinase (PKA) (Homo sapiens, UniProt P22694+P17612+P22612)
assay.method.text: Inhibition of protein kinase A
Type: protein assay
measured.property: IC50 (µM)

• O=C1NCc2c1c1c3ccccc3[nH]c1c1[nH]c3ccccc3c21 = 25.7
• O=C1NC(O)c2c1c1c3ccccc3[nH]c1c1[nH]c3ccccc3c21 (centres undefined) = 34
• O=C1NC(=O)c2c1c1c3ccccc3[nH]c1c1[nH]c3ccccc3c21 = 60
